Where these numbers come from: patent US20230414780A1

Biological target: T1, rhesus monkey TfR ectodomain fused to a mouse IgG1 Fc fragment (rhesus monkey, UniProt I0FKY7 89-760)
T1 construct: extracellular domain; not shown: mouse IgG1 Fc fragment
Assay: SPR, kinetic
pKd: −log10 of the molar value.
Is pKd at least 7? Then yes (1). If not, no (0).

# count of solved cases: 5
1. B8^V38 (VHH) VHH: EVQLVESGGGVVQPGGSLRLSCAASGEIRSINFMRWYRQAPGKQREWVAGFTRTGSTNYPDSAKGRFTISRDNAKNTVYLQIDSLKPEDTAVYYCYMLDTWGQGTQVTVSS = yes (1)
2. C5^V32 (VHH) VHH: EVQLVESGGGVVQPGGSLKLSCVASGTDFSINFIRWYSQAPGKQREFVAGFTATGNTNYADSMKGRLTISRDNTKNAVYLQIDSLKPEDTAVYYCYMLGKWGQGTQVTVSS = no (0)
3. B8^V35 (VHH) VHH: EVQLVESGGGVVQPGGSLRLSCAASGEIRSINFMRWYRQAPGKQREWVAGFTRDGSLNYPDSAKGRFTISRDNAKNTVYLQIDSLKPEDTAVYYCYMLDTWGKGTQVTVSS = yes (1)
4. C5^V31 (VHH) VHH: EVQLVESGGGVVQPGGSLKLSCVASGTDRSINFIRWYRQAPGKQREFVAGFTATGNTNYADSMKGRFTISRDNTKNAVYLQIDSLKPEDTAVYYCYMLDKWGQGTQVTVSS = no (0)
5. C10a (VHH) VHH: EVQLVESGGGLVQAGDSLRLSCAASGFASHLYAIGWFRQAPGKEREKVSCISSNDGSTYYADSVKGRFTISRDTVKDMVYLQMNSLKPEDTAVYYCATDLTVHCFMAEYDWWGQGTQVTVSS = yes (1)

# input Would you say B8^V40 (VHH) VHH: EVQLVESGGGVVQPGGSLRLSCAASGEIKSINFMRWYRQAPGKQREWVSGFTRDGSTNYPDSAKGRFTISRDNAKNTVYLQIDSLKPEDTAVYYCYMLDTWGQGTQVTVSS shows pKd at minimum 7?
# output yes (1)

# input Reported pKd reaches at least 7 for B8^V31 (VHH) VHH: EVQLVESGGGVVQPGGSLRLSCAASGEIKSINFMRWYRQAPGKQREWVAGFTRDGSTNYPDSAKGRFTISRDNAKNTVYLQIDSLKPEDTAVYYCYMLDTWGQGTQVTVSS ?
# output yes (1)

# input Assess whether reported pKd for C5^V30 (VHH) VHH: EVQLVESGGGVVQPGGSLKLSCVASGTDKSINFIRWYRQAPGKQREFVAGFTATGNTNYADSMKGRFTISRDNTKNAVYLQIDSLKPEDTAVYYCYMLDKWGQGTQVTVSS sits at 7 or higher.
# output no (0)

# input Test whether the binder B8^V34 (VHH) VHH: EVQLVESGGGVVQPGGSLRLSCAASGEIRSINFMRWYRQAPGKQREWVAGFTRDGSTNYPDIAKGRFTISRDNAKNTVYLQIDSLKPEDTAVYYCYMLDTWGQGTQVTVSS records pKd of 7 or higher.
# output yes (1)
